Reported max activation values follow for various compounds
- TARGET_SYSTEM: AMPK alpha2/beta2/gamma3 (Homo sapiens) (UniProt P54646+O43741+Q9UGI9)
- Sequence (O43741 whole entry, looked up): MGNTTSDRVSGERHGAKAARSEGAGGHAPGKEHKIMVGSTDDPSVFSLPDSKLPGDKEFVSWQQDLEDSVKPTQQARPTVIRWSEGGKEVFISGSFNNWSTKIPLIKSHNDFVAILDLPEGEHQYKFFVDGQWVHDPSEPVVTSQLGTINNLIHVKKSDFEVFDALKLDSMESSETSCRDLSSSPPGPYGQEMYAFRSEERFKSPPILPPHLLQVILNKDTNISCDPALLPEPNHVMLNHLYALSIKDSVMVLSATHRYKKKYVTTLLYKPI
- Sequence (P54646 whole entry, looked up): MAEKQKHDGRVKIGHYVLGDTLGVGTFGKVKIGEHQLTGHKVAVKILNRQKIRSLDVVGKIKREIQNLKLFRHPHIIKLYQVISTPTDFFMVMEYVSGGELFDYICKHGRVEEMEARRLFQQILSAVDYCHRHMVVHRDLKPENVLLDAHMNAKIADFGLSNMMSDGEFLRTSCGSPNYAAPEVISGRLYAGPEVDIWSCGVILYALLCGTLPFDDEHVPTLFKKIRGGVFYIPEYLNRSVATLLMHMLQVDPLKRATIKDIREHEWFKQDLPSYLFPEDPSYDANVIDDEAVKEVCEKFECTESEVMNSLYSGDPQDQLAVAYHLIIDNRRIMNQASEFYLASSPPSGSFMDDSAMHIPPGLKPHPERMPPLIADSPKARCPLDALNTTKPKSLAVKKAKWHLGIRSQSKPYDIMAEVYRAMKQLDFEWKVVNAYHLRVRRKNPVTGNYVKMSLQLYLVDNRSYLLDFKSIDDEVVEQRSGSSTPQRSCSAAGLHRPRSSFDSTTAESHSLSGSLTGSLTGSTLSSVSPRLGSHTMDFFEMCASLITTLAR
- Sequence (Q9UGI9 whole entry, looked up): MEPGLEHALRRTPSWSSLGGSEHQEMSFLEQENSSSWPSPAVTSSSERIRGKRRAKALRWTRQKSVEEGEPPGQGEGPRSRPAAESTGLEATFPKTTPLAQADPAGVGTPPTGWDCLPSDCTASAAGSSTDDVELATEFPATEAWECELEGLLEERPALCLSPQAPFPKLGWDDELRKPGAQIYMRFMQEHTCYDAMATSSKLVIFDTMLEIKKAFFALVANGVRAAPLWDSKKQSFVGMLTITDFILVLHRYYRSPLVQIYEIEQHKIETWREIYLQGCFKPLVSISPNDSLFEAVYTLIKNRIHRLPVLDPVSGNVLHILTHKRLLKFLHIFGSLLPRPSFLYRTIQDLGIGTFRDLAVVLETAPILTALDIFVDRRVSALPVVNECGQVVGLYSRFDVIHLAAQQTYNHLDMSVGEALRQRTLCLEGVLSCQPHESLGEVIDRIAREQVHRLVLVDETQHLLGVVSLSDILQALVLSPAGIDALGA
- ASSAY: Activation of human AMPK alpha2/beta2/gamma3 transiently transfected in HEK293 cells assessed as phosphorylation at […]Thr172 by measuring asymptotic max incubated for 20 mins by AlphaLISA assay relative to control
- Format: cell-based
- CONDITION_DESCRIPTION: filed as activator
QUANTITY: max activation (%)

- Cn1cc(F)c(N2CC(C)(c3cccc(Cl)c3F)c3c(cnc(NC4CN([C@H]5CCCNC5=O)C4)c3F)C2=O)n1 (some centres undefined): 119
- Cn1cc(F)c(N2CC(C)(c3cccc(Cl)c3F)c3c(cnc(N[C@@H]4CCN(C(=O)N5C[C@@H]6C[C@H]5CO6)C4)c3F)C2=O)n1 (some centres undefined): 52.2
- Cn1cc(F)c(N2C[C@](C)(c3cccc(Cl)c3F)c3c(cnc(NC4CN(C(=O)C(O)CC(F)(F)F)C4)c3F)C2=O)n1 (some centres undefined): 100
- Cn1cc(F)c(N2C[C@](C)(c3cccc(Cl)c3F)c3c(cnc(NC4CN(C(=O)[C@@](C)(O)C5CC5)C4)c3F)C2=O)n1: 89.6
